Test system: MOLT-4 cells
assay overview: MTT cell viability assay, MOLT-4
Assay type: cell-based, human
assay conditions: Homo sapiens; MOLT-4 leukaemia cells, MTT; read-out: IC50 cell proliferation MOLT-4
pIC50: −log10 of the molar value.

[
  {
    "compound": "O=c1[nH]cc(F)c(=O)[nH]1 [5-Fluorouracil]",
    "pIC50": 5.54
  }
]

====

target or system: LSD1 (Homo sapiens)
Construct: pET-28b-LSD1 (full length) was transfected into BL21 (DE); inferred from the pET-28b vector and Ni-NTA purification
assay overview: LSD1 enzyme inhibition assay (recombinant LSD1, fluorescence)
assay conditions: in vitro
pIC50: −log10 of the molar value.
Outcome: criterion met for pIC50 of at least 5; criterion not met for anything lower.

[
  {
    "molecule": "CCN1CCN(C(=S)SCC(=O)Nc2ccc(C(=O)/C=C/c3cccc(F)c3)cc2)CC1",
    "label class": "criterion met"
  },
  {
    "molecule": "O=C(CCl)Nc1ccc(C(=O)/C=C/c2ccccc2F)cc1",
    "label class": "criterion not met"
  },
  {
    "molecule": "CN1CCN(C(=S)SCC(=O)Nc2ccc(C(=O)/C=C/c3cccc(F)c3)cc2)CC1",
    "label class": "criterion met"
  },
  {
    "molecule": "O=C(CCl)Nc1ccc(C(=O)/C=C/c2ccc(F)cc2)cc1",
    "label class": "criterion not met"
  },
  {
    "molecule": "O=C(CCl)Nc1ccc(C(=O)/C=C/c2ccccc2)cc1",
    "label class": "criterion not met"
  },
  {
    "molecule": "Nc1ccc(C(=O)/C=C/c2ccccc2F)cc1 [Chalcone 4, reference compound]",
    "label class": "criterion not met"
  },
  {
    "molecule": "O=C(CSC(=S)N1CCN(Cc2ccccc2)CC1)Nc1ccc(C(=O)/C=C/c2ccccc2F)cc1",
    "label class": "criterion met"
  },
  {
    "molecule": "O=C(CCl)Nc1ccc(C(=O)/C=C/c2cccc(F)c2)cc1",
    "label class": "criterion not met"
  }
]

====

Parameter pIC50: see the listing below.
target or system: LSD1 (Homo sapiens, UniProt O60341)
Construct: pET-28b-LSD1 (full length) was transfected into BL21 (DE); inferred from the pET-28b vector and Ni-NTA purification
assay overview: LSD1 enzyme inhibition assay (recombinant LSD1, fluorescence)
assay conditions: in vitro
pIC50: −log10 of the molar value.

[
  {
    "compound": "CN1CCN(C(=S)SCC(=O)Nc2ccc(C(=O)/C=C/c3ccccc3)cc2)CC1 [D2]",
    "pIC50": 5.03
  },
  {
    "compound": "CCN1CCN(C(=S)SCC(=O)Nc2ccc(C(=O)/C=C/c3ccccc3)cc2)CC1 [D3]",
    "pIC50": 4.86
  },
  {
    "compound": "CCN1CCN(C(=S)SCC(=O)Nc2ccc(C(=O)/C=C/c3ccc(F)cc3)cc2)CC1 [D1]",
    "pIC50": 4.95
  }
]

Ref: paper PMC7738283
